system: SF-268 CNS; assay: NCI tumour cell line growth inhibition, 48 h
Listed here: items and their measured GI50.

MOLECULE	GI50
CN1CCN(C2=NC(=O)/C(=C\c3ccc(N(C)C)cc3)S2)CC1	> 100 µM
CCOC(=O)NC(=S)N(CC(=O)c1cc(OC)c(OC)c(OC)c1)c1ccc(Cl)cc1	> 100 µM
Cn1c(COC(=O)NCCn2ccnc2)nc2c(N3CCOCC3)nc(-c3ccccc3)nc21	1.29 µM
COc1cc(/C=N/NC(=O)c2cnn3c2NC(c2ccccc2)C3)ccc1OC1CCCC1 (configuration not stated)	1.88 µM
COC1=CC(c2ccc[nH]2)=N/C1=C\c1[nH]c(C)c(C(=O)CCCCCCCCC(=O)O[C@H]2CC[C@H]3C4CCc5cc(O)ccc5C4CC[C@]23C)c1C (some centres not stated)	0.429 µM
O=C(Nc1n[nH]c2cc(-c3cc(F)ccc3F)ccc12)C1CC1	19.5 µM
CC(=O)[CH-]C(C)=O.CC(=O)[CH-]C(C)=O.[O-]c1ccccc1.[O-]c1ccccc1.[Ti+4]	> 100 µM

* * *

test system: TK-10 renal; assay: NCI tumour cell line growth inhibition, 48 h
MEASUREMENT_LABEL: TGI

MOLECULE	MEASUREMENT_LABEL	VALUE_MEASURED
Cc1nc(NC(C)(CO)CO)nc(N/N=C/c2ccc(Cl)cc2)c1C(=O)Nc1ccc(Cl)cc1	TGI	> 100 µM
CC(=O)Nc1ccc(C2CC(c3ccc([N+](=O)[O-])cc3)=Nc3ccccc3S2)cc1 (centres undefined)	TGI	44.4 µM
Cn1c(COC(=O)NCCn2ccnc2)nc2c(N3CCOCC3)nc(-c3ccccc3)nc21	TGI	2.41 µM
COC1(CC[C@@H](C)COC2OC(CO)C(O)C(O)C2O)OC2C[C@H]3[C@@H]4CC[C@H]5C[C@@H](OC6OC(CO)C(OC7OC(CO)C(O)C(O)C7O)C(O)C6OC6OC(C)C(O)C(O)C6O)[C@H](O)C[C@]5(C)[C@H]4CC[C@]3(C)C2[C@@H]1C (some centres undefined)	TGI	3.82 µM
C1=CC(=P(c2ccccc2)(c2ccccc2)c2ccccc2)C=C1	TGI	50.9 µM
CCOC(=O)c1c(N)sc2c1C(C(=O)OCC)CCCC2 (centres undefined)	TGI	> 100 µM
CSC(SC)=C(C(=O)c1ccc(Cl)cc1)n1c(=O)sc2cc(Br)ccc21	TGI	> 100 µM
COc1cc2c(cc1C)NC(=O)/C2=C/c1ccnc2ccccc12	TGI	> 50 µM
Cc1cn(CCCCCCOC(=O)NC(CCCNC(N)=O)C(=O)O)c(=O)[nH]c1=O (centres undefined)	TGI	> 100 µM
CC1=C(CO)C(=O)OC(C(C)C2CCC3C4CC5OC56C(O)C(N5CC5)=CC(=O)C6(C)C4CCC23C)C1 (centres undefined)	TGI	22 µM
Cn1c(I)c(C#C[Si](C)(C)C)c(=O)n(C(=O)c2ccccc2)c1=O	TGI	14 µM
CC(=O)N1[C@H](C(=O)O)CS[C@H]1c1ccc(F)cc1	TGI	> 100 µM
c1cnc2c(c1)-n1cccc1C1(CCCCC1)NN2	TGI	> 100 µM
FC1=C2C3CCC(C3)C2C1(F)F (centres undefined)	TGI	> 100 µM
N[C@@H](CCC(=O)NC(Cc1ccccc1)C(=O)NCP(=O)(O)O)C(=O)O (some centres undefined)	TGI	> 100 µM
CCOP(=O)(/C=C/n1cc(C)c(=O)[nH]c1=O)OCC	TGI	> 100 µM
Cc1cccc(N2C(=O)/C(=C/C(Cl)=C/c3ccc([N+](=O)[O-])cc3)SC2=S)c1C	TGI	> 100 µM
COc1cc(N2C(=O)[C@H](Cl)C2c2ccc(SC)cc2)cc(OC)c1OC (some centres undefined)	TGI	> 100 µM
CCN(CC)C(=S)SC(C(=O)Nc1nnc(-c2ccc(Cl)cc2)o1)c1ccccc1 (centres undefined)	TGI	62.3 µM
Nc1c(C(=O)c2ccc(Cl)c(Cl)c2)[nH]c(NCc2ccccc2)c1C(=S)Nc1ccccc1	TGI	33.4 µM
O=C1Nc2ccccc2/C1=C\c1c(Cl)n(-c2ccccc2)c2ccccc12	TGI	27 µM
O=S(=O)(Nc1nc2ccccc2nc1N1CCCCCC1)c1ccccc1	TGI	40 µM
Clc1ccc2c(NCCCCCCNc3ccnc4cc(Cl)ccc34)ccnc2c1	TGI	18.2 µM
COC1CC(C)(NC(=O)C(F)(F)F)C2OC(c3ccccc3)OCC2O1 (centres undefined)	TGI	> 100 µM
CSc1nc(Nc2cccc(NC(=O)CCl)c2)c(C#N)c(-c2cccc([N+](=O)[O-])c2)n1	TGI	10.9 µM
Cn1/c(=N\N=C2\C=C3CCCCC3(C)CC2)sc2ccccc21 (centres undefined)	TGI	> 100 µM
N#CCCC(C=O)(CCC#N)CCC#N	TGI	> 100 µM
COc1ccc(-c2ccc(OC)c(OC)c2OC)cc1	TGI	> 100 µM
COC(=O)c1c2c(cc3c1CC1(Cc4cc5c(c(C=O)c4C1)CCC5)C3)CCC2 (centres undefined)	TGI	> 100 µM
N#Cc1c(-c2ccc([N+](=O)[O-])cc2)c(C#N)c(=O)n(NS(=O)(=O)c2ccccc2)c1S	TGI	> 100 µM
CCc1nc(N)c2nc(-c3cccs3)oc2n1	TGI	> 100 µM
Cc1n[nH]c2ccccc2c1=O	TGI	> 100 µM
CC(Nc1ccc(Cl)cc1)c1ccncc1 (centres undefined)	TGI	> 100 µM
Cn1c(=O)c2c(nc3[nH]c(=O)c(Br)cn32)n(C)c1=O	TGI	> 100 µM
COP(=O)(OC)OCN(C)CC/C=C(\C)CC/C=C(\C)CCC=C(C)C	TGI	21.9 µM
O=C(CC1=Nc2nnc(CCCCCCCc3nnc4n3C(=O)C(CC(=O)c3ccc5ccccc5c3)=N4)n2C1=O)c1ccc2ccccc2c1	TGI	> 100 µM
O=C1c2ccccc2-c2nc3ccncc3n21	TGI	> 100 µM
Clc1ccc2c(c1)N(CCCN1CCCC13CCCCC3)c1ccccc1S2	TGI	29.7 µM
O=C(Nc1n[nH]c2cc(-c3cc(F)ccc3F)ccc12)C1CC1	TGI	> 25 µM
CC1CCC2C(C)C(=O)OC2C2(C)C(=O)C=CC12 (centres undefined)	TGI	> 10 µM
N=C1CCCC1C(=S)SCCC(N)=O (centres undefined)	TGI	> 100 µM
O=P1(N(CCCl)CCCl)Oc2ccc(Cl)cc2C(C(Cl)(Cl)Cl)c2cc(Cl)ccc2O1 (centres undefined)	TGI	89.5 µM
CN(CCCCCl)P(=O)(OCc1ccc([N+](=O)[O-])o1)OCC1OC(n2ccc(N)nc2=O)C(O)C1O (centres undefined)	TGI	> 100 µM
O=C1NC(O)c2cc3ccccc3cc2O1 (centres undefined)	TGI	> 100 µM

* * *

test system: HCT-15 colon; test: NCI tumour cell line growth inhibition, 48 h; in the data active means GI50 below about 0.43 µM; inactive means the rest
Outcome codes: active, inactive

>>> print(df.to_string())
                                   compound  assigned_category
0  CN1CCN(C2=NC(=O)/C(=C\c3ccc(N(C)C)cc3)S2)CC1           inactive
1  CCOC(=O)NC(=S)N(CC(=O)c1cc(OC)c(OC)c(OC)c1)c1ccc(Cl)cc1           inactive
2  C/C(=N/NC(=S)Nc1ccccc1)c1nc2ccc(Cl)cc2[nH]1             active
3  COc1ccc2[nH]c(C(=O)N3CCN(C(=O)OCc4ccc5c(Cl)cc(Cl)c(O)c5n4)CC3)cc2c1             active
4  COc1cc(C2CC(c3ccc(Nc4nc(NCCO)nc(NCCO)n4)cc3)=NN2c2cc(Cl)cc(Cl)c2)cc(OC)c1OC (stereo not drawn)           inactive
5  COc1cc2c(cc1OCCNC(=O)/C=C1\C[C@H]3C=Nc4cc(OCc5ccccc5)c(OC)cc4C(=O)N3C1)N=C[C@@H]1CCCN1C2=O           inactive
6  COc1ccc(-c2ccc(C3CC(c4ccccc4)=NN3)o2)c([N+](=O)[O-])c1 (stereo not drawn)           inactive
7  CCCCCCCC(=O)OCC/C=C/C1OC1C1OC(=O)/C=C\C=C\C(=O)N(C(C)=O)C(=O)/C=C(/C)CCC2OC2C1OC(=O)NC(C)=O (stereo not drawn)           inactive

* * *

system: UACC-257 melanoma; test: NCI tumour cell line growth inhibition, 48 h
MEASUREMENT_LABEL: TGI

MOLECULE	MEASUREMENT_LABEL	VALUE_MEASURED
C=C1CCC[C@@H](C)C(O)[C@@H]2OC(=O)C(=C)[C@@H]2C[C@@H](OC(C)=O)[C@@]2(C)CC[C@@H]1O2 (some centres undefined)	TGI	15.2 µM
CCC1(c2ccc(N3C(=O)c4cccc5cc([N+](=O)[O-])cc(c45)C3=O)cc2)CCC(=O)NC1=O (centres undefined)	TGI	> 100 µM
COC1(OC)C2(Cl)C3=CCCC=C3C1(Cl)C(Cl)=C2Cl	TGI	75.1 µM
O=c1[nH]ccc(CNC23CC4CC(CC(C4)C2)C3)c1O	TGI	> 100 µM
CCOC(=O)c1c(-c2ccc(OC)cc2)ccn1C	TGI	> 10 µM
O=C(O)c1c(CC(Cc2ccc3c(c2)CCC3)C(=O)O)ccc2c1CCC2 (centres undefined)	TGI	> 100 µM
CC(=O)NC1C(OCc2ccccc2)OC(CO)C(O)C1OC(C)C(=O)N[C@@H](C)C(=O)N[C@H](CCC(=O)NCCNCCNc1c2ccccc2nc2cccc([N+](=O)[O-])c12)C(N)=O (some centres undefined)	TGI	0.753 µM
C=C(Br)CN=CN(C)C	TGI	> 100 µM
COc1ccccc1NC(=O)C(=O)C(C(=O)c1ccccc1F)C1OC(=O)c2ccccc21 (centres undefined)	TGI	> 100 µM

src = PubChem BioAssay (NCI)
